Data credit: paper PMC12693701

Below, each entry is listed with its recorded MIC.
tested on: E. coli ATCC 25922; assay: Microdilution MIC/MMC with resazurin; format: cell-based, Escherichia coli; conditions: Escherichia coli, ATCC25922; E. coli ATCC 25922; compounds 1–8; read-out: MIC
Answer with a number only, understood to be in µg/mL.

For reference, reported MIC for S=C1NCC(c2ccccc2)O1 (racemic) [Compound 4, rac-5-Phenyl-1,3-oxazolidine-2-thione] stands at 2500

For reference, reported MIC for S=C1NC[C@H](c2ccccc2)O1 [Compound 5, (S)-5-phenyl-1,3-oxazolidine-2-thione] stands at 5000

For reference, reported MIC for O=C1NCC(c2ccccc2)O1 (stereo not shown) [Compound 7, 5-Phenyl-1,3-oxazolidin-2-one] stands at 1250

For reference, reported MIC for O=C(O)C1CSC(=S)N1 (stereo not shown) [Compound 3, 2-Thioxothiazolidine-4-carboxylic Acid] stands at 625

For reference, reported MIC for CSC(=S)NCCc1ccccc1 [Compound 1, Methyl phenethylcarbamodithioate] stands at 1250

For reference, reported MIC for CSC(=S)NCCc1ccc(O)cc1 [Compound 2] stands at 312

* * *

test system: S. enterica; assay: Inhibition of biofilm formation (crystal violet); format: cell-based, Salmonella enterica; conditions: biofilm coverage reduced by 90%
OUTCOME MEASURE: BIC90

Past entries and their recorded results:
MOLECULE | TARGET UNDER TEST | BIC90
O=C1NCC(c2ccccc2)O1 (stereo not drawn) | S. enterica | >5000 µg/mL
CSC(=S)NCCc1ccc(O)cc1 | S. enterica | 3200 µg/mL
O=C(O)C1CSC(=S)N1 (stereo not drawn) | S. enterica | >5000 µg/mL

For reference, reported BIC90 for CN(C)[C@@H]1C(O)=C(C(N)=O)C(=O)[C@@]2(O)C(O)=C3C(=O)c4c(O)cccc4[C@@](C)(O)[C@H]3C[C@@H]12 [Tetracycline, reference compound] stands at 180 µg/mL

For reference, reported BIC90 for Oc1ccc(CCN=C=S)cc1 [Compound 8, 2-(4-hydroxyphenyl)ethyl isothiocyanate] stands at >5000 µg/mL

For reference, reported BIC90 for S=C1NCC(c2ccccc2)O1 (racemic) stands at 4470 µg/mL

* * *

test system: E. coli; experiment: Microdilution MIC/MMC with resazurin; assay type: cell-based, Escherichia coli; details: E. coli isolate; compounds 1–8
Below, each entry is listed with its recorded MMC.
Answer with a number only, understood to be in mg/mL.

MOLECULE | MEASUREMENT UNITS | READING
O=C(O)C1CSC(=S)N1 (stereo not shown) | mg/mL | 5
CSC(=S)NCCc1ccc(O)cc1 | mg/mL | 0.312
S=C1NCC(c2ccccc2)O1 (racemic) | mg/mL | 5

Let us examine a further case.
For reference, reported MMC for O=C1NCC(c2ccccc2)O1 (stereo not shown) stands at 2.5

* * *

Below, each entry is listed with its recorded IC50.
biological target: Type I-B soybean lipoxygenase (Glycine max, UniProt P08170)
Sequence (P08170 whole entry): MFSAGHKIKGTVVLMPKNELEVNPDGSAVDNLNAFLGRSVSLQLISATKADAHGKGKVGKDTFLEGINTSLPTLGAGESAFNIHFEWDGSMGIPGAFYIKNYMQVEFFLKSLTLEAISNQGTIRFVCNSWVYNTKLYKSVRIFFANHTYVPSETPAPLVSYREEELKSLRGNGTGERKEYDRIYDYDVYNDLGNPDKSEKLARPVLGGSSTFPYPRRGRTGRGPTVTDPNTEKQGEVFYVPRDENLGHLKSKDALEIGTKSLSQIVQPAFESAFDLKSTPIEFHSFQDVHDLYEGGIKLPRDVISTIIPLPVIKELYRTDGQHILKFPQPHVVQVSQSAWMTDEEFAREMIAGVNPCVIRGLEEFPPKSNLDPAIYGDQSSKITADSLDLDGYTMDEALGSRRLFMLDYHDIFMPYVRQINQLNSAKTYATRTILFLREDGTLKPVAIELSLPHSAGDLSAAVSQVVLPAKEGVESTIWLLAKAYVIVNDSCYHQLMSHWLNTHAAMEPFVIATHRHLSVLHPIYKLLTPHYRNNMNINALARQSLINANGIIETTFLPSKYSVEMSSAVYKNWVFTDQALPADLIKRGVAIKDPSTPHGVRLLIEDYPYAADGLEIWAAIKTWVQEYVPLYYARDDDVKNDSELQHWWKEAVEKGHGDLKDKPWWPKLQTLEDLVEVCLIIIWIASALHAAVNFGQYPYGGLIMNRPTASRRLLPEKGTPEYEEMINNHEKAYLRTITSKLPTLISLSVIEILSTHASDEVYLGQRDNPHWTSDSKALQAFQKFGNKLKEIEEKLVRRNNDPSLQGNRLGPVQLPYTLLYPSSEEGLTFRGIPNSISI
Answer with a number only, understood to be in µM.

Past entries and their recorded results:
COMPOUND | OUTCOME MEASURE | MEASUREMENT UNITS | READING
S=C1NC[C@H](c2ccccc2)O1 [Compound 5, (S)-5-phenyl-1,3-oxazolidine-2-thione] | IC50 | µM | 123
CSC(=S)NCCc1ccccc1 [Compound 1, Methyl phenethylcarbamodithioate] | IC50 | µM | 126
CSC(=S)NCCc1ccc(O)cc1 [Compound 2] | IC50 | µM | 97.4

Query S=C1NCC(c2ccccc2)O1 (racemic) [Compound 4, rac-5-Phenyl-1,3-oxazolidine-2-thione] on Type I-B soybean lipoxygenase (Glycine max, UniProt P08170); IC50 returned: 61.6

* * *

Test system: P. mirabilis
Assay: Microdilution MIC/MMC with resazurin
Type: cell-based, Proteus mirabilis
Conditions: Proteus mirabilis; P. mirabilis; compounds 1–8; read-out: MIC
Description: The antimicrobial activity was evaluated against 15 microorganisms. […] Antimicrobial activity was evaluated by determining the minimum inhibitory concentration (MIC) and minimum microbicidal concentration (MMC) using the microdilution plate method with resazurin as an indicator [28]. […] Each test also included growth control and sterility control. […] For molds, MIC values of the tested compound were determined as the lowest concentration that inhibited visible mycelia growth. […]
OUTCOME MEASURE: MIC

Past entries and their recorded results:
COMPOUND | MIC
S=C1NCC(c2ccccc2)O1 (racemic) [Compound 4, rac-5-Phenyl-1,3-oxazolidine-2-thione] | 2500 µg/mL
O=C1NCC(c2ccccc2)O1 (stereo not shown) [Compound 7, 5-Phenyl-1,3-oxazolidin-2-one] | 2500 µg/mL
CSC(=S)NCCc1ccc(O)cc1 [Compound 2] | 156 µg/mL

Let us examine a further case.
For reference, reported MIC for S=C1NC[C@H](c2ccccc2)O1 [Compound 5, (S)-5-phenyl-1,3-oxazolidine-2-thione] stands at 5000 µg/mL

* * *

system: K. pneumoniae; test: Microdilution MIC/MMC with resazurin; format: cell-based, Klebsiella pneumoniae; conditions: K. pneumoniae; compounds 1–8
Below, each entry is listed with its recorded MMC.

MOLECULE | MMC
O=C1NCC(c2ccccc2)S1 (centres unmarked) | >5 mg/mL
S=C1NCC(c2ccccc2)O1 (racemic) | 5 mg/mL
CSC(=S)NCCc1ccccc1 [Compound 1, Methyl phenethylcarbamodithioate] | 5 mg/mL
O=C1NCC(c2ccccc2)O1 (centres unmarked) | 2.5 mg/mL
S=C1NC[C@H](c2ccccc2)O1 [Compound 5, (S)-5-phenyl-1,3-oxazolidine-2-thione] | 5 mg/mL

For reference, reported MMC for O=C(O)C1CSC(=S)N1 (centres unmarked) stands at 2.5 mg/mL

For reference, reported MMC for Oc1ccc(CCN=C=S)cc1 [Compound 8, 2-(4-hydroxyphenyl)ethyl isothiocyanate] stands at 0.625 mg/mL

For reference, reported MMC for CSC(=S)NCCc1ccc(O)cc1 stands at 0.625 mg/mL

* * *

assay: DPPH radical scavenging assay; settings: 100 µM, 60 min; mean ± SD
Returns 1 if the recorded DPPH Scavenging Ability is greater than or equal to 6%, and -1 otherwise.

Worked examples, 2 compounds total:
COMPOUND | CLASS ASSIGNMENT
O=c1c(O)c(-c2ccc(O)c(O)c2)oc2cc(O)cc(O)c12 [Quercetin, reference compound] | 1
S=C1NC[C@H](c2ccccc2)O1 [Compound 5, (S)-5-phenyl-1,3-oxazolidine-2-thione] | 1

Input line: Please indicate if the recorded DPPH Scavenging Ability for Oc1ccc(CCN=C=S)cc1 [Compound 8, 2-(4-hydroxyphenyl)ethyl isothiocyanate] meets or exceeds 6%.
Output line: 1

Input line: Please indicate if the recorded DPPH Scavenging Ability for O=C1NCC(c2ccccc2)S1 (stereo not drawn) [Compound 6, 5-phenyl-1,3-thiazolidin-2-one] meets or exceeds 6%.
Output line: -1

Input line: Please indicate if the recorded DPPH Scavenging Ability for CSC(=S)NCCc1ccccc1 [Compound 1, Methyl phenethylcarbamodithioate] meets or exceeds 6%.
Output line: -1

Input line: Please indicate if the recorded DPPH Scavenging Ability for S=C1NCC(c2ccccc2)O1 (racemic) [Compound 4, rac-5-Phenyl-1,3-oxazolidine-2-thione] meets or exceeds 6%.
Output line: -1

Input line: Please indicate if the recorded DPPH Scavenging Ability for CSC(=S)NCCc1ccc(O)cc1 [Compound 2] meets or exceeds 6%.
Output line: 1

Input line: Please indicate if the recorded DPPH Scavenging Ability for O=C1NCC(c2ccccc2)O1 (stereo not drawn) [Compound 7, 5-Phenyl-1,3-oxazolidin-2-one] meets or exceeds 6%.
Output line: -1

Input line: Please indicate if the recorded DPPH Scavenging Ability for O=C(O)C1CSC(=S)N1 (stereo not drawn) [Compound 3, 2-Thioxothiazolidine-4-carboxylic Acid] meets or exceeds 6%.
Output line: 1

* * *

system: E. coli; assay: Microdilution MIC/MMC with resazurin; format: cell-based, Escherichia coli; details: E. coli isolate; compounds 1–8
OUTCOME MEASURE: MMC (mg/mL)
Answer with a number only, understood to be in mg/mL.

COMPOUND | MMC, mg/mL
S=C1NC[C@H](c2ccccc2)O1 [Compound 5, (S)-5-phenyl-1,3-oxazolidine-2-thione] | 5
CSC(=S)NCCc1ccccc1 [Compound 1, Methyl phenethylcarbamodithioate] | 5

Let us examine a further case.
Query Oc1ccc(CCN=C=S)cc1 [Compound 8, 2-(4-hydroxyphenyl)ethyl isothiocyanate] on E. coli; MMC returned: 0.625

* * *

assay: ABTS radical scavenging assay; conditions: 50 µM; mean ± SD
OUTCOME MEASURE: ABTS Scavenging Ability (%)
Answer with a number only, understood to be in %.

Past entries and their recorded results:
MOLECULE | MEASUREMENT UNITS | READING
Cc1c(C)c2c(c(C)c1O)CCC(C)(C(=O)O)O2 (stereo not drawn) [Trolox, reference compound] | % | 99.3
CSC(=S)NCCc1ccc(O)cc1 | % | 13.4
CSC(=S)NCCc1ccccc1 [Compound 1, Methyl phenethylcarbamodithioate] | % | 2.2
Oc1ccc(CCN=C=S)cc1 [Compound 8, 2-(4-hydroxyphenyl)ethyl isothiocyanate] | % | 6.8
O=C1NCC(c2ccccc2)O1 (stereo not drawn) | % | 2.7
S=C1NCC(c2ccccc2)O1 (racemic) | % | 1.6
O=C1NCC(c2ccccc2)S1 (stereo not drawn) | % | 3.9
O=C(O)C1CSC(=S)N1 (stereo not drawn) | % | 1.9

For reference, reported ABTS Scavenging Ability for S=C1NC[C@H](c2ccccc2)O1 [Compound 5, (S)-5-phenyl-1,3-oxazolidine-2-thione] stands at 12.3
